TEST_NAME: Plasma pharmacokinetics of esomeprazole and esomeprazole sulfone in goats after IV and SC administration (HPLC, non-compartmental analysis)
CONDITION_DESCRIPTION: both, pygmy and pygmy-cross, plasma, sc, 2 mg/kg, Tmax, goats, 2 mg/kg SC (SQ) single dose, geomean, n = 5
RESULT_TYPE: Tmax
Record the result as a number with its unit.

Tmax for COc1ccc2nc([S@@+]([O-])Cc3ncc(C)c(OC)c3C)[nH]c2c1 ?
22 min

###

TEST_NAME: Plasma pharmacokinetics of esomeprazole and esomeprazole sulfone in goats after IV and SC administration (HPLC, non-compartmental analysis)
CONDITION_DESCRIPTION: both, pygmy and pygmy-cross, plasma, iv, 1 mg/kg, Cl (plasma clearance), goats, 1 mg/kg IV single dose, geomean, n = 5
RESULT_TYPE: clearance (mL/min/kg)
Provide the reading as a plain figure in mL/min/kg.

clearance for COc1ccc2nc([S@@+]([O-])Cc3ncc(C)c(OC)c3C)[nH]c2c1 ?
24.9
